# MEASURED_TARGET: c-Src SH2;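 also: peptide library displayed on the E. coli surface as eCPX fusions, selected cells deep-sequenced, score is each peptide's frequency after selection divided by its frequency in the input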
# TEST_DESCRIPTION: SH2 binding enrichment of the phosphorylated peptide, bacterial display (enrichment ratio); higher = better substrate or ligand; peptides without Tyr show the background
EXPERIMENTAL_READOUT: SH2 binding enrichment

REGAKYVSHGA [ASS1_Y113]	0.415
YLTSSYINIST [IL23R_Y178]	2.21
KRYRIYHLAIS [BRCA2_Y3009_T3013I]	1.51
RREWFYEVIIA [BACE1_Y260_V265A_YF]	0.512
YRAVKYLQMVG [AVPR2_Y117_C112Y]	0.372

A: SVSVNYGDQVQ [GRAP_Y101]
B: GIVEDYRPTFY [ACVRL1_Y421_P424T]
Select one. Lower SH2 binding enrichment: A or B Output the label that corresponds to your choice.
A

----------
// reported phosphorylation enrichment for each item listed
# MEASURED_TARGET: Fes (UniProt P07332)
# Sequence (P07332 whole entry, looked up): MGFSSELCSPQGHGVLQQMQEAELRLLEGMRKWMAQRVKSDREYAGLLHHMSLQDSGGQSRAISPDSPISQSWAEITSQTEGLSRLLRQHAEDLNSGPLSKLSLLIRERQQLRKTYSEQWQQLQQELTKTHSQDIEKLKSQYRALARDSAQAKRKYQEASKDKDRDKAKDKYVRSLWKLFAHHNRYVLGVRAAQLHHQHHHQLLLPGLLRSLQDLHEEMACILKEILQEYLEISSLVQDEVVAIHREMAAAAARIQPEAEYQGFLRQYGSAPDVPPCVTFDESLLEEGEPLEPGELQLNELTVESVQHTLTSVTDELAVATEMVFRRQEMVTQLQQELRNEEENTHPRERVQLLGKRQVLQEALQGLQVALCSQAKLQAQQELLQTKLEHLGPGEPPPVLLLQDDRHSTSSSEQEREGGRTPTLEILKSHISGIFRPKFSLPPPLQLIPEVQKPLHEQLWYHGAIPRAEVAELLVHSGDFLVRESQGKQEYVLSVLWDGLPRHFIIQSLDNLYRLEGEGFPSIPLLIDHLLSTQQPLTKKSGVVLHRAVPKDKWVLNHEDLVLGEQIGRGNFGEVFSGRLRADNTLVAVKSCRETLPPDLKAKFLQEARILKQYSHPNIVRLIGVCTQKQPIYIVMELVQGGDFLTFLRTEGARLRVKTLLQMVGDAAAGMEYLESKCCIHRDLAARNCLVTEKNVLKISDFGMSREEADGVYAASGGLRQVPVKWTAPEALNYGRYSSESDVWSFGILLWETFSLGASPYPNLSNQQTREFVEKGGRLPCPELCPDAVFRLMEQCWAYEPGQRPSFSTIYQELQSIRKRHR
# TEST_DESCRIPTION: phosphorylation enrichment, bacterial display (enrichment ratio); higher = better substrate or ligand; peptides without Tyr show the background
Would you mind answering with just the numeric figure?

The following sequences have reported results that may help.
REGAKYVSHGA [ASS1_Y113]	0.628
ILTYKYLQKPM [KIT_Y547]	1.15
VYLGAYDCFLP [SLC22A5_Y486_R488C]	1.41

In one line, give reported phosphorylation enrichment of the entry NVGGKYSFLKV [GRM3_Y478_YF] .
0.739

In one line, give reported phosphorylation enrichment of the entry PQAVRYIFTID [DCX_Y103_G100A_YF] .
1.76

In one line, give reported phosphorylation enrichment of the entry WHHTFYNELRV [ACTA1_Y93] .
1.01

In one line, give reported phosphorylation enrichment of the entry AKQVGCENAGT [PC_Y304_Y304C] .
0.83

In one line, give reported phosphorylation enrichment of the entry KVDKEYEVHVR [GHR_Y226_R229H] .
0.956

----------
# Tested on: c-Abl (mouse)
# TEST_DESCRIPTION: phosphorylation enrichment, bacterial display (enrichment ratio); higher = better substrate or ligand; peptides without Tyr show the background
EXPERIMENTAL_READOUT: phosphorylation enrichment
Would you mind answering with just the numeric figure?

The following sequences have reported results that may help.
HLQDEYDFKCK [STAT1_Y170_D165H]	0.776
EREYKYGAHNY [OAT_Y50]	0.506
RAVLLYEYVGK [NATD1_Y45]	1.24
VDSAHYKLLET [DTX3L_Y385]	0.466
AVAFLYFKSIG [ADGRL4_Y301_V300L_YF]	0.851

In one line, give reported phosphorylation enrichment of the entry PLDGEYFTPQI [TP53_Y327_L330P] .
12.9

----------
# MEASURED_TARGET: EPHB2 (UniProt P29323)
# Sequence (P29323 whole entry, looked up): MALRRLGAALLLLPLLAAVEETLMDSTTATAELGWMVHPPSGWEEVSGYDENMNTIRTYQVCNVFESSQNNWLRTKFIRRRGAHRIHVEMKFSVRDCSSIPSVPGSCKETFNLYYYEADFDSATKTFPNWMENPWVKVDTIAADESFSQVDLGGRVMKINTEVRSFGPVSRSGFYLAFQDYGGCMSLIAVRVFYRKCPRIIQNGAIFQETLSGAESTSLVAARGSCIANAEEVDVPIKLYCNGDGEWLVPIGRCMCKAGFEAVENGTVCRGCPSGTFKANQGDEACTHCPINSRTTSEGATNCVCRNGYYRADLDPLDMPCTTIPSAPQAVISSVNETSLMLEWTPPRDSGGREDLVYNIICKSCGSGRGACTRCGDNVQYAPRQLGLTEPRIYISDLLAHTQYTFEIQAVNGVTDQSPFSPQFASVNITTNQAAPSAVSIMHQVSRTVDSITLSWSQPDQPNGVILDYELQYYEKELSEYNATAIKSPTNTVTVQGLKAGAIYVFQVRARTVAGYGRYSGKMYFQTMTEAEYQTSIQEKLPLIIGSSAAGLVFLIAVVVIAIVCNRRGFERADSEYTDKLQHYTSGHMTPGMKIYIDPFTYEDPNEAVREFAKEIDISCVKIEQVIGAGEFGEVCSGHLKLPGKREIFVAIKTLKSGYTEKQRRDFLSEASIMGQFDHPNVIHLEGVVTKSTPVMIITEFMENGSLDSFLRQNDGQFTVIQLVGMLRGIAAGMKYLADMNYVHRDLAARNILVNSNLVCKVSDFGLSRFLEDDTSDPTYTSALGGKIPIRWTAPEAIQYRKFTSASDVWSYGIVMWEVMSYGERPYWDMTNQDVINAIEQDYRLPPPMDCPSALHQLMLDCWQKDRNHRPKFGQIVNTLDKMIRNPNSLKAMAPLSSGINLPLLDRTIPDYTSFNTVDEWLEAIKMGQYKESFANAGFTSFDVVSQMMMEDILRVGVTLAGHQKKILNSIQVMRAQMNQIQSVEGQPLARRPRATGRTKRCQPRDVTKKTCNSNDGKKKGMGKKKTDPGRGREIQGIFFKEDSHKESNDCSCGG
# TEST_DESCRIPTION: phosphorylation enrichment, bacterial display (enrichment ratio); higher = better substrate or ligand; peptides without Tyr show the background
EXPERIMENTAL_READOUT: phosphorylation enrichment
Would you mind answering with just the numeric figure?

The following sequences have reported results that may help.
TFEYRYLEDRD [CNOT3_Y746]	0.504
RGGDSYGGPPR [RBMX_Y190_R187G]	0.5
DDSNLYINVKL [MTHFD1_Y52]	0.804
LYYYSYLLKNH [PTEN_Y180_V175L]	1.65
DFCDLYGGEKF [PTPN11_Y66_Y63C_YF]	0.564
KKRSVYIKVLF [CC2D2A_Y683_L684I]	0.396
AGGTRYRYVSQ [UCN3_Y95_R91G]	0.525
LFQAKYQIRFR [CRLF1_Y272_YF]	0.69

In one line, give reported phosphorylation enrichment of the entry RGFRQDAFDGK [HLA-A_Y140_YF] .
0.475

In one line, give reported phosphorylation enrichment of the entry CEHRGCLFLAI [TEK_Y897_Y897C_YF] .
0.468

In one line, give reported phosphorylation enrichment of the entry GDAMLYFPSVS [GPR143_Y177_A173D_YF] .
0.446
